# reported z-score; entries follow
- methodDescription: A549 cell viability effects, profiling panel, calcein-AM fluorescence, 48 h, basal (AID 1162); further: test concentration not given here
- testContext: higher = more signal

# molecule, z-score
measured = [
    ("C=C(/C=C\\CNS(=O)(=O)c1ccc(C)cc1)[C@H](O)[C@H]1CCCN1S(=O)(=O)c1ccccc1[N+](=O)[O-]", -0.635),
    ("COc1cc2c(cc1O)C(C)N(Cc1sc3ccccc3c1Cl)CC2 (centres undefined)", 0.0824),
    ("CN1C(=O)C2C=CC(C(O)COCc3ccccc3)N(Nc3ccc([N+](=O)[O-])cc3[N+](=O)[O-])C2C1=O (centres undefined)", 1.02),
    ("COc1cccc(C)c1NC(=O)O[C@H]1[C@H](OC(=O)Nc2ccc3c(c2)OCO3)[C@H](OC(=O)Nc2ccc3c(c2)OCO3)[C@@H](OC)O[C@@H]1CO", -0.934),
]

Origin of values: PubChem BioAssay
